Target: IRAK4 (Homo sapiens (Human))
Sequence (Q9NWZ3 whole entry): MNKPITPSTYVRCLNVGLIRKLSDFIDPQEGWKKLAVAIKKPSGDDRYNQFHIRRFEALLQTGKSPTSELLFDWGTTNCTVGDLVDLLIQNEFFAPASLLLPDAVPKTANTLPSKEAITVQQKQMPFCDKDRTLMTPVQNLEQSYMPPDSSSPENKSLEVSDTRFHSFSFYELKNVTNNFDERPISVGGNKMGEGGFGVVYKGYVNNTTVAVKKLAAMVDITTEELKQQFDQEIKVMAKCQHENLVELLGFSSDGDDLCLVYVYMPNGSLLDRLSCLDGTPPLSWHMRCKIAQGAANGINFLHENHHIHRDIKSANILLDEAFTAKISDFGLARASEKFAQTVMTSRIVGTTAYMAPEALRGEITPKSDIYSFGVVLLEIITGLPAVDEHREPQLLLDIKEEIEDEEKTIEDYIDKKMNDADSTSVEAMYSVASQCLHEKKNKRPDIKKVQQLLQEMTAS
Test: IRAK4 Degradation HiBiT Assay
Conditions: read-out: Cellular IRAK4 HiBiT: DC50; Table 4; HiBiT-tagged Jurkat cells, 4 hrs
Experimental Readout: DC50 (nM)
API: value field is a number in nM; no unit string.

**Query** For CC(C)Nc1cc(-c2ccc3cc(C#N)cnn23)ncc1-c1nnc(N2CCN(CCCCc3ccc4c(c3)CN(C3CCC(=O)NC3=O)C4=O)CC2)s1 (stereo not drawn) [Example 26] , what is its reported DC50?
**Result** 94.2

**Query** Also, Cc1ncsc1-c1ccc(CNC(=O)[C@@H]2C[C@@H](O)CN2C(=O)[C@@H](NC(=O)C2(F)CC2)C(C)(C)C)c(OCCCCCC(=O)N2CCN(c3nnc(-c4cnc(-c5ccc6cc(C#N)cnn56)cc4NC(C)C)s3)CC2)c1 [Example 42] please.
**Result** 336

**Query** And CC(C)Nc1cc(-c2ccc3cc(C#N)cnn23)ncc1-c1nnc([C@H]2CC[C@H](NC(=O)CCOCCOCCOCCNc3cccc4c3C(=O)N(C3CCC(=O)NC3=O)C4=O)CC2)s1 (stereo partly drawn) [Example 4] ?
**Result** 51.8
